Molecular target: GPR119 receptor (Mesocricetus auratus, UniProt A0A1U8CD06)
Construct: which endogenously express the GPR119 receptor; host or cells: HIT-T15 hamster pancreatic islet cells
Experiment: cAMP assay in HIT-T15 hamster pancreatic islet cells (functional agonist activity)
Type: cell-based
Conditions: HIT-T15 cells endogenously expressing GPR119; 30 min at 25° C.; intracellular cAMP
property.label: EC50 (µM)
One number for each entry, in µM.

Consider the reported EC50 for these compounds:
CCOC(=O)N1CCC(n2ncc3c(Oc4ccc(S(C)(=O)=O)cc4F)ncnc32)CC1    0.14
Cc1nn(C2CCN(C(=O)OC(C)C)CC2)c2ncnc(Oc3cc(F)c(F)cc3F)c12    0.7
Cn1nc(Oc2ncnc3c2cnn3C2CCN(C(=O)OC(C)(C)C)CC2)ccc1=O    0.47
CC(C)(C)OC(=O)N1CCC(n2ncc3c(Oc4cccnc4)ncnc32)CC1    1.2
CS(=O)(=O)c1ccc(Oc2ncnc3c2cnn3C2CCN(Cc3ccc(C(F)(F)F)cc3)CC2)cc1    0.036
Cc1cc(=O)oc2cc(Oc3ncnc4c3cnn4C3CCN(C(=O)OC(C)(C)C)CC3)ccc12    3
Cc1nc(-n2cncn2)ccc1Oc1ncnc2c1cnn2C1CCN(C(=O)OC(C)C)CC1    0.86
CC(C)(C)OC(=O)N1CCC(n2ncc3c(Oc4ccc(-c5ccsc5)cc4)ncnc32)CC1    0.49

Hey, can you go through the list below and give me EC50 for every item?
1. CCOC(=O)N1CCC(n2ncc3c(Oc4ccc(S(C)(=O)=O)cc4)ncnc32)CC1
2. CC(C)(C)OC(=O)N1CCC(n2ncc3c(Oc4ccc5c(c4)OCO5)ncnc32)CC1

[0.65, 0.29]

====

What log10(EC50) was measured for each of the following?
Biological target: GPR119 receptor (Mesocricetus auratus, UniProt A0A1U8CD06)
Construct: which endogenously express the GPR119 receptor; host or cells: HIT-T15 hamster pancreatic islet cells
Experiment: cAMP assay in HIT-T15 hamster pancreatic islet cells (functional agonist activity)
Type: cell-based
Conditions: HIT-T15 cells endogenously expressing GPR119; 30 min at 25° C.; intracellular cAMP
A value of 2 here means EC50 of 100 in µM, since values are log10.

CCOc1ccc(Oc2ncnc3c2cnn3C2CCN(C(=O)C3CCCC3)CC2)c(F)c1    -0.59
COc1ccc(Oc2ncnc3c2cnn3C2CCN(C(=O)OC(C)(C)C)CC2)c(OC)n1    -0.05
CS(=O)(=O)c1ccc(Oc2ncnc3c2cnn3C2CCN(c3ccc(Cl)nn3)CC2)cc1    -0.15

Please state log10(EC50) for every compound in the list that follows.
1. CCOc1ccc(Oc2ncnc3c2cnn3C2CCN(C(=O)OC(C)C)CC2)c(F)c1
2. CS(=O)(=O)c1ccc(Oc2ncnc3c2cnn3C2CCN(Cc3ccc(F)cc3)CC2)cc1

[-0.42, -0.70]

====

Biological target: GPR119 receptor (Mesocricetus auratus, UniProt A0A1U8CD06)
Construct: which endogenously express the GPR119 receptor; host or cells: HIT-T15 hamster pancreatic islet cells
Sequence (A0A1U8CD06 1-334): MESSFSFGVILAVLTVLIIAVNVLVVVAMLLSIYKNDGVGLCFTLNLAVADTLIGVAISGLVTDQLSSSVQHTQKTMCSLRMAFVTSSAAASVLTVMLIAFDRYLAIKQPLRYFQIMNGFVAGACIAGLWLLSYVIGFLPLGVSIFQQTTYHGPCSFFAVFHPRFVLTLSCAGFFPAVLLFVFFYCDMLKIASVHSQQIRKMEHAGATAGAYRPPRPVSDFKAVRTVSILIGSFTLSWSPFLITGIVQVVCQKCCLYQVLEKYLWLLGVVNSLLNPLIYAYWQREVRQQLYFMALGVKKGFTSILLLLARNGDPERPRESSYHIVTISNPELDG
Test: cAMP assay in HIT-T15 hamster pancreatic islet cells (functional agonist activity)
Type: cell-based
Conditions: HIT-T15 cells endogenously expressing GPR119; 30 min at 25° C.; intracellular cAMP
property.label: EC50 (µM)
Numbers only, in µM.

Before answering, review these 5 worked examples.
C[S+]([O-])c1ccc(Oc2ncnc3c2cnn3C2CCN(C(=O)OC(C)(C)C)CC2)cc1 (stereo not shown) [Example 58]    0.42
Cc1cc(Oc2ncnc3c2cnn3C2CCN(C(=O)OC(C)(C)C)CC2)ccc1NS(C)(=O)=O [Example 68]    0.73
N#Cc1ccccc1Oc1ncnc2c1cnn2C1CCN(C(=O)OC2CCCC2)CC1 [Example 118]    0.34
Cc1ncccc1Oc1ncnc2c1cnn2C1CCN(C(=O)OC2CCCCC2)CC1 [Example 125]    0.57
CC(C)(C)OC(=O)N1CCC(n2ncc3c(Oc4ccccc4C#N)ncnc32)CC1 [Example 45]    0.061

Hey, quick one: what's EC50 for each of these?
1. CC(C)c1noc(C2CCC(n3ncc4c(Oc5ccc(S(C)(=O)=O)cc5F)ncnc43)CC2)n1 (stereo not shown) [Example 131]
2. CCc1cc(Oc2ncnc3c2cnn3C2CCN(C(=O)OC(C)(C)C)CC2)nc(C)n1 [Example 103]

1. 0.39
2. 3.4
